Biological target: CYP1A2 (Macaca fascicularis, UniProt O77809)
Sequence (O77809 1-516): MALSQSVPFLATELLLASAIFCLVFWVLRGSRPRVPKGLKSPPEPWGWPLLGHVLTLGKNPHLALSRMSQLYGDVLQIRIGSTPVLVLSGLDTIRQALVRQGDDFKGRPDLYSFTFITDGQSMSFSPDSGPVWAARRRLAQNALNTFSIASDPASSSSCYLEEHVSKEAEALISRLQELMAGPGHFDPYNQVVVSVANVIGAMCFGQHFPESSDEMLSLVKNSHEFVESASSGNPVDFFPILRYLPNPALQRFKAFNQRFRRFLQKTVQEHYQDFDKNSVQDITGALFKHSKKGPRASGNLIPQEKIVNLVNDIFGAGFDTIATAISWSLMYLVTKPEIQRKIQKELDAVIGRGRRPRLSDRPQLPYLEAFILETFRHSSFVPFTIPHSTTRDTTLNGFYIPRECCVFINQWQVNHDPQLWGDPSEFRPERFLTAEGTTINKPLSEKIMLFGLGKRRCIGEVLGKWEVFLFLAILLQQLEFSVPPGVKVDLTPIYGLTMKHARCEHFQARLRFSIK
Provide the recorded IC50 for the entries that follow.
// units = µM; emit number, no label

Write IC50 of COc1ccc(-c2cccc(S(=O)(=O)N[C@@H](Cc3cccc(C(=N)N)c3)C(=O)N3CCN(C(=O)NC4CCCCC4)CC3)c2)c(OC)c1 ; system used: CYP1A2 (Macaca fascicularis, UniProt O77809) 1.1

Write IC50 of N=C(N)c1cccc(C[C@H](NS(=O)(=O)c2cccc(-c3ccc(Cl)cc3Cl)c2)C(=O)N2CCC(CCN)CC2)c1 ; system used: CYP1A2 (Macaca fascicularis, UniProt O77809) 1.3

Write IC50 of N=C(N)c1cccc(C[C@H](NS(=O)(=O)c2cccc(-c3cc(CO)ccc3Cl)c2)C(=O)N2CCC(CCNC(=O)NC3CCCCC3)CC2)c1 ; system used: CYP1A2 (Macaca fascicularis, UniProt O77809) 0.21

Write IC50 of COc1ccc(-c2cccc(S(=O)(=O)N[C@@H](Cc3cccc(C(=N)N)c3)C(=O)N3CCC(NC(=O)NC4CCCCC4)CC3)c2)c(OC)c1 ; system used: CYP1A2 (Macaca fascicularis, UniProt O77809) 2.4

Entry source: paper PMC9027957
